// reported normalized growth for each item listed
assay: chemical genetic growth profiling, strain panel (AID 1159580);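 further: tested at 20 µM; growth read once vehicle control cultures reached saturation at 30 °C; 1 = growth at the plate median or of vehicle wells; lower values mean less growth of the strain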; settings: S. cerevisiae deletion strains, growth OD, locus YLR027C, strain aat2, hits give low values
Screen size: about 5,500 compounds; about 2,000 (36%) were called active. Not shown: some 18% with an inconclusive outcome. This is one part of the list.
The answer should be a number; do not append a unit.

Here's what some known entries look like.
Cc1cc(O)c2c(c1O)C(=O)c1c(O)cc(C)c(O)c1C2=O	0.966
O=c1ccc2ccc(O)c(O)c2o1	0.993
CN1Cc2c(N)cccc2C(c2ccccc2)C1 (centres undefined)	1.02

Here is another compound to look at.
The recorded normalized growth for CCOC(=O)C1=C(C)NC(C)=C(C(=O)OC)C1c1cccc([N+](=O)[O-])c1 (centres undefined) is 1.01

====

assay: chemical genetic growth profiling, strain panel (AID 1159580);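 further: tested at 20 µM; growth read once vehicle control cultures reached saturation at 30 °C; 1 = growth at the plate median or of vehicle wells; lower values mean less growth of the strain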; details: S. cerevisiae deletion strains, growth OD, locus YAL013W, strain DEP1, hits give low values
Out of some 5,500 compounds screened, about 2,000 (36%) were called active. About 18% were inconclusive and are not listed. The list shows a part of the results.
Some compounds, each annotated with its measured normalized growth.
Write the number on its own, no unit after it.

Here are 2 compounds together with their reported answers.
CC(N)=NCc1cccc(CN)c1	1.02
CC1(C)C[C@@H]2C(=O)CC[C@H]3O[C@]3(C)CC[C@H]21	1.01

Briefly, normalized growth measured for "Cc1ccc(C(=O)NNC(=O)c2ccncc2)c(C)c1" : 0.994

====

assay: chemical genetic growth profiling, strain panel (AID 1159580);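 further: tested at 20 µM; growth read once vehicle control cultures reached saturation at 30 °C; 1 = growth at the plate median or of vehicle wells; lower values mean less growth of the strain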; settings: S. cerevisiae deletion strains, growth OD, locus YKL067W, strain YNK1, hits give low values
The campaign covered roughly 5,500 compounds. About 2,000 (36%) were called active. About 18% were inconclusive and are not listed. The list shows a part of the results.
Items are presented alongside their recorded normalized growth.

Cc1nn(Cc2cccc(C(=O)O/N=C(/N)c3ccc(Cl)cc3)c2)c(C)c1Br	0.958 (inactive)
Cc1c(NCN2C(=O)CCC2=O)cc2c(c1[N+](=O)[O-])C(C)(C)CC2(C)C	0.929 (inactive)

Per the records, this compound ( "N#C/C(=N/Nc1ccc(Cl)cc1)C(N)=S" ) has normalized growth equal to 0.167 (active)

====

test: chemical genetic growth profiling, strain panel (AID 1159580);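 further: tested at 20 µM; growth read once vehicle control cultures reached saturation at 30 °C; 1 = growth at the plate median or of vehicle wells; lower values mean less growth of the strain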; conditions: S. cerevisiae deletion strains, growth OD, locus YGR135W, strain pre9, hits give low values
About 2,000 (36%) of roughly 5,500 compounds were called active. Not shown: some 18% with an inconclusive outcome. The list shows a part of the results.
Each entry below lists one item and its recorded normalized growth value.
Output: the number by itself.

Solved entries:
CC1(C)C=Cc2c(cc3occ(-c4ccc5c(c4)OCO5)c(=O)c3c2O)O1	0.964
CC(=O)N[C@@H](CC(=O)O)C(=O)O	1.01
CC(C)=CCc1c(O)cc2occ(-c3ccc4c(c3)OCO4)c(=O)c2c1O	0.993
CNC(=O)CSP(=S)(OC)OC	1.01

Entry CN1Cc2c(N)cccc2C(c2ccccc2)C1 (stereo not given) — recorded normalized growth = 1.04

# normalized growth (compound: CC(=O)O[C@@H]1CC2C(C)(C)C(=O)[C@@H]3O[C@@H]3[C@]2(C)C2CC[C@]3(C)C(=CC(=O)O[C@H]3c3ccoc3)[C@@]21C (stereo not given in full) ) is 1.07

Per the record, "COc1c(O)cc(O)cc1O" has normalized growth of 0.972

Notebook: "COc1cc(O)c(C(C)=O)c(OC)c1" , normalized growth read as 0.957

Form field normalized growth, entry "COc1cc(O)c(C)c(O)c1" : 1.02

So, "CN(C)c1nc(N(C)C)nc(N(C)C)n1" ? Its normalized growth was 1.03
